- target: BRM (Homo sapiens)
- Sequence (P51531 whole entry): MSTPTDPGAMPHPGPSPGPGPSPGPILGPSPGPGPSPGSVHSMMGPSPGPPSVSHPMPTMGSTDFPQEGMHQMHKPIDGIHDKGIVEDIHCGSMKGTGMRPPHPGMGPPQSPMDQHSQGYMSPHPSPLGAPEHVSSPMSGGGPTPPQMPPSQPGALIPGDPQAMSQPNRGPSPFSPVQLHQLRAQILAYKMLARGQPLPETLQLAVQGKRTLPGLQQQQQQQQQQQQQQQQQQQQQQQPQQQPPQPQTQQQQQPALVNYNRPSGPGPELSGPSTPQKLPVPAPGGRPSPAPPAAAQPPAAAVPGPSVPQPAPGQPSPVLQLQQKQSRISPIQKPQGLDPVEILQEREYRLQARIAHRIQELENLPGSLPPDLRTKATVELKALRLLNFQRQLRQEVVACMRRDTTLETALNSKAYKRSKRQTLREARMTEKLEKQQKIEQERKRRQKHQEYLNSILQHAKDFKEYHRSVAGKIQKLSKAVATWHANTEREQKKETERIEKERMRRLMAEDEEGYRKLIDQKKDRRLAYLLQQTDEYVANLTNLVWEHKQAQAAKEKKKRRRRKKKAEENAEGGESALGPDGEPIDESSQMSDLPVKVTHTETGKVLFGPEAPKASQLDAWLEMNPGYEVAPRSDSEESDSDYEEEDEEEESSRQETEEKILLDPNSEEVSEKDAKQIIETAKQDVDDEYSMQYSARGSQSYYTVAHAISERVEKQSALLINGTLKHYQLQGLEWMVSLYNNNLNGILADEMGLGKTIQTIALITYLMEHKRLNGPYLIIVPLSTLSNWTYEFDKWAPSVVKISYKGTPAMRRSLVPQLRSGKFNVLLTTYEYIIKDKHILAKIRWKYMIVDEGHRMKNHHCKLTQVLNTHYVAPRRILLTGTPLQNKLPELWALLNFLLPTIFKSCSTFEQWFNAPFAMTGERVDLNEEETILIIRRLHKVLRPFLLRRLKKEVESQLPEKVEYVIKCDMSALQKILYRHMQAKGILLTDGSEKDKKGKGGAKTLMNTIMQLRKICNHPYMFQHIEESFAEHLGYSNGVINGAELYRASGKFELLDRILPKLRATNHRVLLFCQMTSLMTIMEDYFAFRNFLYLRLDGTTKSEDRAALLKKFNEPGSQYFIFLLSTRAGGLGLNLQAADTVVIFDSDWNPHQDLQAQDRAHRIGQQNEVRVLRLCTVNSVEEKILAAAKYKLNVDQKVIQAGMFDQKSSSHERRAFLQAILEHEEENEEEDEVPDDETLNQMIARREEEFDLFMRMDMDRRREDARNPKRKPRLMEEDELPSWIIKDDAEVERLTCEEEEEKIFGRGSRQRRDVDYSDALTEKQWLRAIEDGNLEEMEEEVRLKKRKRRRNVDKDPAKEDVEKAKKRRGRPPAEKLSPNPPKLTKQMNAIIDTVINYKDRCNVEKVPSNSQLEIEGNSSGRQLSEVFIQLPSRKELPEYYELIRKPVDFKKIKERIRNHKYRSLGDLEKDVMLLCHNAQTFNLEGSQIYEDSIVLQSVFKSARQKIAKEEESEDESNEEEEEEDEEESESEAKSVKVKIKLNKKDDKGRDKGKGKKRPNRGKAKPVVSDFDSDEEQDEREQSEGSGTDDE
pIC50: −log10 of the molar value.
List of pIC50 values.

Some molecules with recorded pIC50:
INSERT INTO results (molecule, recorded_result) VALUES
  ('CN(C)c1ccc(C(=O)NCC(=O)Nc2nc(-c3cccc(-c4ccncc4)c3)cs2)cc1 [Compound 132]', '> 7.00'),
  ('CC(=O)N(C)Cc1cccc(-c2cccc(-c3csc(NC(=O)CNC(=O)c4ccc(N)cc4)n3)c2)c1 [Compound 129]', '6.00 to 7.00'),
  ('COC(C)(C)Cn1ccc(-c2cccc(-c3csc(NC(=O)CNC(=O)c4ccc(N)cc4)n3)c2)n1 [Compound 232]', '6.00 to 7.00'),
  ('Nc1ccc(C(=O)NCC(=O)Nc2nc(-c3cccc(-c4ccnc(C5(C(=O)O)CC5)c4)c3)cs2)cc1 [Compound 219]', '> 7.00');

Give the measured pIC50 of CC(=O)N(C)Cc1ccc(-c2cccc(-c3csc(NC(=O)CNC(=O)c4ccc(N)cc4)n3)c2)cc1 [Compound 138] .
6.00 to 7.00

// query: COC(=O)c1cc(-c2cccc(-c3csc(NC(=O)CNC(=O)c4ccc(N)cc4)n3)c2)ccn1 [Compound 181]
> 7.00

// query: CCC[C@H](NC(=O)c1cccc(S(=O)(=O)N(C)C)c1)C(=O)Nc1nc(-c2ccccc2)cs1 [Compound 17]
5.00 to 6.00
